target-of-assay: T1, human PACAP38 (human, not fully specified; C-terminal lysine is amidated; N-terminal or C-terminal biotin in the HTRF and PC-12 cell binding assays)
T1 construct: synthetic peptide, bought; also called huPACAP (1-38)
T1 peptide: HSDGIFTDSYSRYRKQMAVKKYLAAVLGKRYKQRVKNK
test-summary: SPR, Ab immobilised
Each entry below carries its recorded Kd.
reported-property: Kd

binder | val
anti-PACAP antibody Ab1 (antibody, human IgG1, kappa, N297A, V domains shown, full-length rabbit/human chimeric antibody) VH: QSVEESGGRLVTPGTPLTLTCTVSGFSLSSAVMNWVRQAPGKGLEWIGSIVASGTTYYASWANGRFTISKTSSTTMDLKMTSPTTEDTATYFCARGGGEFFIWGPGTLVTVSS VL: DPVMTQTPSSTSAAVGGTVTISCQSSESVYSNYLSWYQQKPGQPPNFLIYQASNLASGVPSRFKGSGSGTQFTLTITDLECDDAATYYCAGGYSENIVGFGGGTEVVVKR | ≤ 0.027 nM
anti-PACAP antibody Ab12 (antibody, human IgG1, kappa, N297A, V domains shown, full-length rabbit/human chimeric antibody) VH: QSVEESGGRLVTPGTPLTLTCTASGFSLSSYAMGWVRQAPGKGLEWIGDISTYGTTDYASWVYGRFTISRTSTTVTLKMTSLTTEDTATYFCARDYWLSLWGQGTLVTVSS VL: AAVLTQTPSPVSAAVGGTVTIKCQSSQSVYDNNALAWYQQKPGQPPKLLIYAASTLASGVPSRFSGSGSGTEFTLTISGVQCDDAATYYCLGGYYDPADNAFGGGTEVVVKR | ≤ 0.032 nM
anti-PACAP antibody Ab3.H (antibody, human IgG1, kappa, N297A, V domains shown, humanized form of Ab3, full length) VH: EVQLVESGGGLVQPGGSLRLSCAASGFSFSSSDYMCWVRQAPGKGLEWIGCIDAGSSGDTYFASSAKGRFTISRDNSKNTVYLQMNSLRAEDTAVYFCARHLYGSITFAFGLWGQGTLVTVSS VL: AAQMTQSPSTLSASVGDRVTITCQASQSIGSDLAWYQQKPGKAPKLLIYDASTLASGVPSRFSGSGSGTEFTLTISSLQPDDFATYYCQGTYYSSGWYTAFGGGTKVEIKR | 0.29 nM
